Experiment: ATG_ISRE_CIS: Attagene CIS-FACTORIAL HepG2 Assay for human Interferon Regulatory Factor 1 (IRF1) binding to an Interferon-Stimulated Response Element (ISRE) (AID 2282948)
Conditions: HepG2 ISRE cis-reporter (Attagene), mRNA transcription readout; actives raise or lower the signal
Active and inactive are the calls of the source. How the source made its calls: active means hit-call score of the fitted dose curve at least 0.9, where 1 is the maximum; inactive means score below 0.9.
Your response should consist of one outcome taken from true (1) (active), false (0) (inactive)

A selection of reference data follows.
CN(C)Cc1cc(C(C)(C)C)c(O)c(C(C)(C)C)c1; false (0)
COC(=O)c1ccccc1; false (0)
C=C1CC[C@H]2C[C@@H]1C2(C)C; false (0)
c1cc(N(CC2CO2)CC2CO2)ccc1Cc1ccc(N(CC2CO2)CC2CO2)cc1 (configuration not stated); true (1)

Please indicate how the test categorized NCc1ccccc1 .
false (0)

Thanks! And CNC[C@H](O)[C@@H](O)[C@H](O)[C@H](O)CO ?
false (0)

Thanks! And CCCCCCC1CCCC(=O)O1 (configuration not stated) ?
false (0)

###

Test: TOX21_p53_BLA_p4_viability: Viability Assessment in the Tox21 HCT-116 p53 Agonism Beta-lactamase Assay, Phase 4 (AID 2283597);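 further: hits lower the luminescence signal meaning cytotoxicity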
Inconclusive results are not listed. Calls of active or inactive are those of the source. The calls were made as follows: active = hit-call score of the fitted dose curve at least 0.9, where 1 is the maximum; inconclusive = response in the unintended direction; inactive = score below 0.9.
Your response should consist of one outcome taken from 1.0 = active, 0.0 = inactive

A selection of reference data follows.
OC[C@H](Cc1cccc(O)c1)[C@H](CO)Cc1cccc(O)c1; 0.0
Cc1ncc(CSSCc2cnc(C)c(O)c2CO)c(CO)c1O; 0.0
OCCN1CCN(CCCN2c3ccccc3Sc3ccc(C(F)(F)F)cc32)CC1; 1.0
Cc1onc(-c2ccccc2)c1C(=O)N[C@@H]1C(=O)N2[C@@H]1SC(C)(C)[C@@H]2C(=O)O; 0.0
COC(=O)[C@H]1[C@H]2C[C@@H]3c4[nH]c5cc(OC)ccc5c4CCN3C[C@H]2C[C@@H](OC(=O)/C=C/c2cc(OC)c(OC)c(OC)c2)[C@@H]1OC; 0.0

Please indicate how the test categorized CC[C@H](C)[C@H]1O[C@]2(CC[C@@H]1C)C[C@@H]1C[C@@H](C/C=C(\C)[C@@H](O[C@H]3C[C@H](OC)[C@@H](O[C@H]4C[C@H](OC)[C@@H](O)[C@H](C)O4)[C@H](C)O3)[C@@H](C)/C=C/C=C3\CO[C@@H]4[C@H](O)C(C)=C[C@@H](C(=O)O1)[C@]34O)O2 .
1.0

Thanks! And COC(=O)CCCCCCCC(=O)OC ?
0.0

Thanks! And CC1(C)S[C@@H]2[C@H](N=CN3CCCCCC3)C(=O)N2[C@H]1C(=O)O ?
0.0

Thanks! And O=c1[nH]cnc2[nH]cc(CN3CCCCC3)c12 ?
0.0

Thanks! And Nc1ccc(N=Nc2ccccc2)c(N)c1 ?
0.0

Thanks! And COC(OC)C(C)c1ccccc1 (configuration not stated) ?
0.0

Thanks! And O=C(c1cc2ccccc2o1)N1CCN(Cc2ccccc2)CC1 ?
0.0

Thanks! And CCCCNC1CC(C)(C)NC(C)(C)C1 ?
0.0

Thanks! And CC(C)CC(=O)CC(C)CC(C)C (configuration not stated) ?
0.0

Thanks! And NC(=O)C(c1ccccc1)(c1ccccc1)[C@@H]1CCN(CCc2ccc3c(c2)CCO3)C1 ?
0.0
